meta.source: patent US8901314B2

Provide the recorded pIC50 for the entries that follow.
target_entity: α1B (Cav2.2), β3 and α2δ subunits of the N-type calcium channel (stable HEK cell line) (Rattus norvegicus, UniProt Q02294)
protocol: Calcium-dye indicator assay (FDSS, KCl depolarization)
cond: calcium mobilization response to 50 mM KCl; six-point concentration-response
Answers are plain numbers, as −log10 of the molar value.

// solved cases for pIC50 follow
COc1ccccc1-n1nc(C2CC(C)(C)OC(C)(C)C2)cc1-c1cc(C)cs1; 8.28
COc1cc(OC)cc(-c2cc(C3CC(C)(C)OC(C)(C)C3)nn2-c2ccccc2OC)c1; 7.24
CC(C)Oc1ccccc1-n1nc(C2CC(C)(C)OC(C)(C)C2)cc1-c1ccc(Cl)cc1; 8.92
CCOC(=O)c1ccc(-c2cc(C3CC(C)(C)OC(C)(C)C3)nn2-c2ccccc2OC)cc1; 8.29
COc1ccccc1-n1nc(C2CC(C)(C)OC(C)(C)C2)cc1-c1ccc2c(ccn2C)c1; 8.24

For every item below, please supply its pIC50.
1. COc1ccccc1-n1nc(C2CC(C)(C)OC(C)(C)C2)cc1-c1ccc(Cl)s1
2. COc1ccccc1-n1nc(C2CC(C)(C)OC(C)(C)C2)cc1-c1cccnc1
3. COc1ccccc1-n1nc(C2CC(C)(C)OC(C)(C)C2)cc1-c1ncc(C)s1

[reply]
8.21
7.15
6.96

For every item below, please supply its pIC50.
1. COc1ccccc1-n1nc([C@@H]2CCO[C@@H](C(C)C)C2)cc1-c1ccc(Cl)cc1 (relative stereo)
2. COc1ccc(-c2cc(C3CC(C)(C)OC(C)(C)C3)nn2-c2ccccc2OC)cc1
3. CC1(C)CC(c2cc(-c3ccc(Cl)cc3)n(-c3ccccc3[N+](=O)[O-])n2)CC(C)(C)O1
4. CN(C)c1ccccc1-n1nc(C2CC(C)(C)OC(C)(C)C2)cc1-c1ccc(Cl)cc1
5. COc1ccccc1-n1nc(C2CC(C)(C)OC(C)(C)C2)cc1-c1ccc(OCCn2ccnc2)cc1

[reply]
7.70
8.89
8.11
8.26
6.40
